# credit: patent US20210388087A1

# testedOn: T1, Human CD137 ECD (human)
# T1 construct: entry includes C-terminal His-tag and biotin acceptor peptide; also called human CD137 extracellular domain; 4-1BB
# procedureText: Biacore SPR, vs parent H183/L072
assayEndpoint: fold change of affinity (fold)
# number only, unit fold dropped from output

>>> val("H183/L072 VL M27eI (antibody, name in Kabat numbering, V domains shown, Dual-Ig) VH: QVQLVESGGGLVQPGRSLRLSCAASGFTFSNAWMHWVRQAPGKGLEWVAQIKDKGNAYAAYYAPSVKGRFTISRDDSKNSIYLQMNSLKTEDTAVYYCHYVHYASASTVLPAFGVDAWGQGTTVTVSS VL: DIVMTQSPLSLPVTPGEPASISCQASQELVHINRNTYLHWYQQKPGQAPRLLIYKVSNRFPGVPDRFSGSGSGTDFTLKISRVEAEDVGVYYCAQGTSVPFTFGQGTKLEIK")
0.9
>>> val("H183/L072 VL S52P (antibody, name in Kabat numbering, V domains shown, Dual-Ig) VH: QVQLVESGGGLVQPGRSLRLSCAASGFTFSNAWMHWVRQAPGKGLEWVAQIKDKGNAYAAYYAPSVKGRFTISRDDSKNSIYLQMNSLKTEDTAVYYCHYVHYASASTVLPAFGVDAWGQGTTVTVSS VL: DIVMTQSPLSLPVTPGEPASISCQASQELVHMNRNTYLHWYQQKPGQAPRLLIYKVPNRFPGVPDRFSGSGSGTDFTLKISRVEAEDVGVYYCAQGTSVPFTFGQGTKLEIK")
0.3

Challenge: Would you mind telling me what fold change of affinity value was observed for H183/L072 VL S93I (antibody, name in Kabat numbering, V domains shown, Dual-Ig) VH: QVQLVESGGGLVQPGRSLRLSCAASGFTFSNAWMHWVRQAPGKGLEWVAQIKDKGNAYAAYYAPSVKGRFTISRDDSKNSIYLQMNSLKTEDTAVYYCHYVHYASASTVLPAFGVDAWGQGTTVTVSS VL: DIVMTQSPLSLPVTPGEPASISCQASQELVHMNRNTYLHWYQQKPGQAPRLLIYKVSNRFPGVPDRFSGSGSGTDFTLKISRVEAEDVGVYYCAQGTIVPFTFGQGTKLEIK ?
Response given: 1.1

Challenge: Would you mind telling me what fold change of affinity value was observed for H183/L072 VL F96V (antibody, name in Kabat numbering, V domains shown, Dual-Ig) VH: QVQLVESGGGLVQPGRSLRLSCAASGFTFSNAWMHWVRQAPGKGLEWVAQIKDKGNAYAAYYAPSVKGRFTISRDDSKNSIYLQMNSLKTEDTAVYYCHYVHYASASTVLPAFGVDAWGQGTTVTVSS VL: DIVMTQSPLSLPVTPGEPASISCQASQELVHMNRNTYLHWYQQKPGQAPRLLIYKVSNRFPGVPDRFSGSGSGTDFTLKISRVEAEDVGVYYCAQGTSVPVTFGQGTKLEIK ?
Response given: 0

Challenge: Would you mind telling me what fold change of affinity value was observed for H183/L072 VL N30H (antibody, name in Kabat numbering, V domains shown, Dual-Ig) VH: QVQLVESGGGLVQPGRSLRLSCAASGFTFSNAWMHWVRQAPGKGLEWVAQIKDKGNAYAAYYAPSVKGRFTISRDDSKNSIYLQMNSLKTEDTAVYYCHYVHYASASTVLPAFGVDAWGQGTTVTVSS VL: DIVMTQSPLSLPVTPGEPASISCQASQELVHMNRHTYLHWYQQKPGQAPRLLIYKVSNRFPGVPDRFSGSGSGTDFTLKISRVEAEDVGVYYCAQGTSVPFTFGQGTKLEIK ?
Response given: 1
